# target.entity: T1, human IL-23 (Sino Biological, CT048-H08H) (human, UniProt Q9NPF7 20-189; P29460 23-328)
# T1 construct: also called human IL-23 protein; Human IL-23 p19
# T1 sequence (looked up) 1: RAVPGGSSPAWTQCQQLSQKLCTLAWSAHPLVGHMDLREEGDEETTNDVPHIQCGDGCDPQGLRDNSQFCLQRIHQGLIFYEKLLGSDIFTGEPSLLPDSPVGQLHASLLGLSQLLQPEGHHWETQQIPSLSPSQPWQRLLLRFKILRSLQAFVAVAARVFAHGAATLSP
# T1 sequence (looked up) 2: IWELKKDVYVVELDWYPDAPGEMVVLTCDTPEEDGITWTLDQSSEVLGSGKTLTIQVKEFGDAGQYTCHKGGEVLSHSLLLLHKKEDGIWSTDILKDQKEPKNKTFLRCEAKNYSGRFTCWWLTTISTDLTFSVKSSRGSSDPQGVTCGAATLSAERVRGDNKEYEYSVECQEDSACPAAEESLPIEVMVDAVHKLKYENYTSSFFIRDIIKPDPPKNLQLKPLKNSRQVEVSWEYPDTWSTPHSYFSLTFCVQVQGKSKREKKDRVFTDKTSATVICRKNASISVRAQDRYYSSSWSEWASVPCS
# assay.method.text: SPR (Biacore), Protein A capture of sample, 1:1 model
# Source text: A certain amount of test sample was subjected to affinity capture by a biosensor chip Protein A (GE, 29127556), and then antigens at a series of concentration gradients were allowed to flow on the surface of the chip. The reaction signals were detected in real time by using Biacore (GE, 8 K) to obtain association and dissociation curves. […]
experimental.readout: koff (s⁻¹)
Please reply with the bare figure in s⁻¹ and do not write the unit itself.

Would you please look over these solved cases?
Ch38 (antibody, human IgG1, kappa, L234A L235A, V domains shown, chimeric: murine variable regions on hIgG1/hkappa; also called chimeric antibody of mAb38) VH: EFQLQQSGPELVKPGASVKISCKASGYSFTDHNMNWVKQSNGKSLEWIGVINPNYGTTTYNQKFKGKATLTVDQSSSTAYMQLNILTSEDSAVYYCARRGFAYWGQGTLVTVSA VL: DIVISQDELSNPVTSGESVSISCRSSKSLLYKDGKTYLNWFLQRPGQSPQLLIYLMSTRASGVSDRFSGSGSGTDLTLEISRVKAEDVGVYYCQQIAEYPFTFGSGTKLEIKR	5.65e-05
Hu38-2 (antibody, human IgG1, kappa, L234A L235A, V domains shown, humanized mAb38, IgG1/kappa) VH: EFQLVQSGAEVKKPGASVKVSCKASGYTFTDHNMNWVRQAPGQRLEWMGVINPNYGTTTYNQKFKGRVTITVDTSASTAYMELSSLRSEDTAVYYCARRGFAYWGQGTLVTVSS VL: DIVMTQTPLSLPVTPGEPASISCRSSKSLLYKDGKTYLNWFLQKPGQSPQLLIYLMSTRASGVPDRFSGSGSGTDLTLKISRVEAEDVGVYYCQQIAEYPFTFGSGTKLEIKR	6.05e-05
Hu38-13 (antibody, human IgG1, kappa, L234A L235A, V domains shown, humanized mAb38, IgG1/kappa) VH: EFQLVQSGAEVKKPGASVKVSCKASGYSFTDHNMNWVRQAPGQSLEWMGVINPNYGTTTYNQKFKGRVTITVDQSASTAYMELSSLRSEDTAVYYCARRGFAYWGQGTLVTVSS VL: DIVMTQTPLSLPVTPGEPASISCRSSKSLLYKDGKTYLNWYLQKPGQSPQLLIYLMSTRASGVPDRFSGSGSGTDFTLKISRVEAEDVGVYYCQQIAEYPFTFGSGTKLEIKR	5.56e-05

Lookup: Fill blank: measured koff of the binder Hu38-4 (antibody, human IgG1, kappa, L234A L235A, V domains shown, humanized mAb38, IgG1/kappa) VH: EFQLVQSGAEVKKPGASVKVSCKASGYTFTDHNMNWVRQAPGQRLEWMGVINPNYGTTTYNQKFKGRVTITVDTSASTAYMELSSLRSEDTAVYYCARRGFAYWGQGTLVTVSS VL: DIVMTQTPLSLPVTPGEPASISCRSSKSLLYKDGKTYLNWFLQKPGQSPQLLIYLMQTRASGVPDRFSGSGSGTDLTLKISRVEAEDVGVYYCQQIAEYPFTFGSGTKLEIKR is ____.
Found: 6.92e-05

Lookup: Queued: Hu38-9 (antibody, human IgG1, kappa, L234A L235A, V domains shown, humanized mAb38, IgG1/kappa) VH: EFQLVQSGAEVKKPGASVKVSCKASGYSFTDHNMNWVRQAPGQRLEWMGVINPNYGTTTYNQKFKGRVTITVDQSASTAYMELSSLRSEDTAVYYCARRGFAYWGQGTLVTVSS VL: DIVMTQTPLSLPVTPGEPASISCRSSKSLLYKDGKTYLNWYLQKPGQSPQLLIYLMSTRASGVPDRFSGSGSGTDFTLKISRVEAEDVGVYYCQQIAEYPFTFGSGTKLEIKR
Found: 6.68e-05
